Assay: Efflux ratio of apparent permeability from basolateral to apical side over apical to basolateral side of human Caco2 cells at 62.5 uM after 30 mins by LC-MS analysis
Assay type: ADME, cell-based
Details: Caco-2
measure: efflux ratio at 0.5 h, 62.5 µM

• CCCCOC(=O)C1=C[C@H](O)[C@@H](NC(C)=O)[C@H]([C@H](O)[C@H](O)Cn2cc(-c3ccc(-c4ccccc4)cc3)nn2)O1 = 6.7

----------
Test: Kinetic solubility of compound in 0.9% NaCl at 10 mM incubated in supersonic bath for 30 mins measured after 24 hrs by LC-MS analysis
Type: physicochemical
Conditions: read-out: Kinetic_solubility
measure: solubility kinetic at 24 h, 10000 µM

• CCOC(=O)C1=C[C@H](O)[C@@H](NC(C)=O)[C@H]([C@H](O)[C@H](O)Cn2cc(-c3ccc(-c4ccccc4)cc3)nn2)O1 = 3.7 µg/mL
• CCCCOC(=O)C1=C[C@H](O)[C@@H](NC(C)=O)[C@H]([C@H](O)[C@H](O)Cn2cc(-c3ccc(-c4ccccc4)cc3)nn2)O1 = 5 µg/mL
• COC(=O)C1=C[C@H](O)[C@@H](NC(C)=O)[C@H]([C@H](O)[C@H](O)Cn2cc(-c3ccc(-c4ccccc4)cc3)nn2)O1 = > 1 µg/mL
• CCCOC(=O)C1=C[C@H](O)[C@@H](NC(C)=O)[C@H]([C@H](O)[C@H](O)Cn2cc(-c3ccc(-c4ccccc4)cc3)nn2)O1 = 2.4 µg/mL
